Biological target: T1, recombinant CD3D&E protein (human CD3-his tag) (human, UniProt P04234 22-105; P07766 23-126, limits assumed)
T1 construct: Analyte in Biacore; also called CD3D&E-His; CD3d&ε-His
T1 sequence (P04234 22-105 limits assumed, chain 1 of 2): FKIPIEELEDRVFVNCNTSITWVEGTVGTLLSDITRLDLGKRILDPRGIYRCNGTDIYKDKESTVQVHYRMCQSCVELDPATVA
T1 sequence (P07766 23-126 limits assumed, chain 2 of 2): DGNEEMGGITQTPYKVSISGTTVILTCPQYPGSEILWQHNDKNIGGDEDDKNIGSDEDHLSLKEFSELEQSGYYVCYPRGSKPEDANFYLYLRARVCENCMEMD
Assay: SPR Biacore, Ab captured on Protein A;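 also: humanized antibodies on a Protein A chip, human CD3-his analyte flowed over in serial dilutions for 3 min, dissociation tracked 120–360 s on a Biacore T200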
Entries and their Kd
Numbers only here, please. The scale is nM.

Take a look at these entries with their results.
binder	unit descriptor	Kd
Hu192A7B9-8 (antibody, V domains shown, humanized mAb) VH: EVQLQESGPGLVKPSETLSLTCTVSGGSISSYNVHWVRQPPGKGLEWIGRMRYNGDTSYNSALKSRVTISRDTSKNQFSLKLSSVTAADTAVYYCARGPRGGYYSALFDYWGQGTMVTVSS VL: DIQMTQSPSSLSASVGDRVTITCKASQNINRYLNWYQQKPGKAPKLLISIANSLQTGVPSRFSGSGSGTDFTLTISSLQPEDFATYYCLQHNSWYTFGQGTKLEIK	nM	58.9
Hu192A7B9-12 (antibody, V domains shown, humanized mAb) VH: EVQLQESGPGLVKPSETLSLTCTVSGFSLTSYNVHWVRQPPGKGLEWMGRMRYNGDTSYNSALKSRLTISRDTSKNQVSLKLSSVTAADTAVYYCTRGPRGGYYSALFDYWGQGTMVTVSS VL: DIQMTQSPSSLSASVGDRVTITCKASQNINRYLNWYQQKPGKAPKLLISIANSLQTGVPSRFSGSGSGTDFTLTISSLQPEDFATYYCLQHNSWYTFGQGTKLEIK	nM	58.1
192A7B9 chimeric mAb (antibody, V domains shown, Chimeric mAb) VH: QVQLKESGPGLVQPSQTLSLNCTVSGFSLTSYNVHWVRQPPGKGLEWMGRMRYNGDTSYNSALKSRLSISRDTSKNQVFLKMNSLQTDDTGTYYCTRGPRGGYYSALFDYWGQGVMVTVSS VL: DIQMTQSPSFLSASVGDRVTINCKASQNINRYLNWYQQKLGDAPKVLISIANSLQTGIPSRFSGSGSGTDFTLTISSLQPEDVATYFCLQHNSWYTFGAGTKLELK	nM	6.34
Hu155A9B1-2 (antibody, V domains shown, humanized mAb) VH: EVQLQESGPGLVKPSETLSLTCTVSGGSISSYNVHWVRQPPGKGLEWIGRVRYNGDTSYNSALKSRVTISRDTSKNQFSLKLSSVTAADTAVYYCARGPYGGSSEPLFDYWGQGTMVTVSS VL: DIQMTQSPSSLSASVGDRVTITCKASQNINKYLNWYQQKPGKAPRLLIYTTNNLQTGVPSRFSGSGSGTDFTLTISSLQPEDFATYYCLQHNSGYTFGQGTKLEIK	nM	15.8

Now take the following binder into account.
Quick check: Kd of Hu155A9B1-1 (antibody, V domains shown, humanized mAb) VH: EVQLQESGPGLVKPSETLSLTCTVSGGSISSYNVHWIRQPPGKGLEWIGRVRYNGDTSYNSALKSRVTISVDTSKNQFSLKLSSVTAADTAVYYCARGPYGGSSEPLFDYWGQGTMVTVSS VL: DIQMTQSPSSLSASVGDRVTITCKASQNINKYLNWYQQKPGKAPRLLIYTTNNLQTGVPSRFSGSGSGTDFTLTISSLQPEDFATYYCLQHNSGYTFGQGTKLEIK ? 40.4

The reported numbers originate from patent US20240417469A1.
